Would you mind telling me the reported inhibition of each entry?
- target: Hexose transporter 1 (Plasmodium falciparum) (UniProt O97467)
- procedure text: ST_JUDE_LEISH: Cytotoxicity at 2uM final concentration against transgenic Leishmania Mexicana promastigotes LmPfHT that are glucose transport deficient and complemented with the Plasmodium falciparum hexose transporter. Activity is measured by DNA content using SYBR green in vitro
- Type: functional
Unit % implied. Number only.

Request: Provide only the value of recorded inhibition for Cc1cccc2nc(-c3ccc(-c4cccc(CNCc5ccc(CN)cc5)c4)s3)[nH]c12
Result: 3.91

Request: Tell me its inhibition given CNCc1ccc(CN(C)c2nc(N)c3cc(OC)c(OC)cc3n2)cc1 as the entry.
Result: 5.4

Request: Return the recorded inhibition value; entry: CN(C)c1cc(NN=Cc2cc(Cl)ccc2O)nc(N(C)C)n1
Result: 4.94

Request: Return value of inhibition for input CCOc1ccccc1C(=O)Nc1cccc(-c2nc3ncccn3c2C)c1 , no commentary.
Result: -0.3

Request: Read the entry FC(F)(F)c1ccc(-c2cncc(-c3ccc(C(F)(F)F)cc3)n2)cc1 and write its reported inhibition.
Result: -1.14

Request: Report inhibition for O=C(Nc1ccc(F)cc1)N1CCCN(c2ccnc3cc(Cl)ccc23)CC1
Result: 0.34

---

- target: Solute carrier family 2, facilitated glucose transporter member 1 (Homo sapiens)
- procedure text: ST_JUDE_LEISH: Cytotoxicity at 2uM final concentration against transgenic Leishmania Mexicana promastigotes LmGLUT1 that are glucose transport deficient and complemented with the human glucose transporter GLUT1. Activity is measured by DNA content using SYBR green in vitro
- Type: functional
readout kind: inhibition (%)
State just the number; it will be interpreted in %.

Request: Let me know recorded inhibition for O=c1cc(NCCCNCc2cccc(Oc3ccccc3)c2)[nH]c2ccccc12 , thanks.
Result: 4.28

Request: Entry COc1cccc(CNc2noc(-c3c(-c4ccccc4)noc3C)n2)c1OC needs its inhibition filled in; supply it.
Result: 3.64

Request: Provide only the value of recorded inhibition for O=C(CCc1c[nH]cn1)Nc1cccc(-c2cccc(-c3nc4cc(C(F)(F)F)ccc4[nH]3)c2)c1
Result: -0.34

Request: Please supply the value of reported inhibition for the item Cc1ccc(NC(=O)c2ccc3ncccc3c2)cc1OC1CCN(Cc2ccsc2)C1 (stereo not given)
Result: 3.87

Request: Tell me its inhibition given CCN(CCCN1CCCCC1)c1cc(C)nc(Nc2cc(F)cc(F)c2)n1 as the entry.
Result: 5.16

---

Please provide measured inhibition for the entries that follow.
- target: Hexose transporter 1 (Plasmodium falciparum) (UniProt O97467)
- procedure text: ST_JUDE_LEISH: Cytotoxicity at 2uM final concentration against transgenic Leishmania Mexicana promastigotes LmPfHT that are glucose transport deficient and complemented with the Plasmodium falciparum hexose transporter. Activity is measured by DNA content using SYBR green in vitro
- Type: functional
Report the value in % with no unit label.

Request: Output inhibition of N#Cc1ccc(NC(=O)Nc2ccc3c(c2)CCN(C2CCC2)CC3)cc1
Result: 4.41

Request: Please report inhibition for the following compound: O=C(Nc1ccnc2ccccc12)NC1CCN(CCc2ccccc2)CC1
Result: 10.9

Request: Check the records and state inhibition for Cc1ccc(O)c(Nc2c3c(c(C#N)c4nc5ccccc5n24)CCC3)c1
Result: 1.2

Request: // fetch inhibition given entry Cc1cnc(CN(Cc2ccc(-c3ccc(CNCCc4ccc(S(C)(=O)=O)cc4)cn3)cc2)C(=O)c2ccc([N+](=O)[O-])c(C)c2)cn1
Result: 3.15

Request: Provide inhibition value for the following compound: Nc1nc(N)c2c(ccc3c2ccn3CCCC2CCCNC2)n1 (stereo not given)
Result: -0.13

Request: Please indicate inhibition recorded for CCCCC(=O)Nc1nonc1-c1ccc(OCC)c(OCC)c1
Result: -0.24

Request: State its inhibition for this compound: COc1ccc2c(OC)c(CNCCCCCCNCc3ccc4cc(OC)ccc4c3OC)ccc2c1
Result: 107

Request: Give reported inhibition value for Nc1nccc(-c2ccc3c(/C=C/c4ccccc4)cnc(N)c3c2)n1
Result: 24.5

Request: Return value of inhibition for input CCCNC(=O)C1CCN(C(c2ccccc2)c2ccc(Cl)c(Cl)c2)CC1 (stereo not given) , no commentary.
Result: 5.75

Request: Identify measured inhibition associated with CCCCCCn1c(Sc2ccc(C#N)c([N+](=O)[O-])c2)nnc1-c1ccccc1
Result: 11.1

Request: Assign inhibition to the following record: CC(=O)N(C)C1CCN(Cc2ccc(-c3ccc(-c4nc5cc(F)ccc5[nH]4)s3)cc2)C1 (stereo not given)
Result: 5.96

Request: Give inhibition for the following compound: COc1cc2cc(-c3nc4ccccc4[nH]3)c(N)nc2cc1OC
Result: 91.3

Request: Report inhibition for CCC(CO)NCC(O)Cn1c2ccc(Br)cc2c2cc(Br)ccc21 (stereo not given)
Result: -0.92

Request: Please report the measured inhibition for CCCC(=O)NC(c1cccs1)c1cc(Cl)c2cccnc2c1O (stereo not given)
Result: 1.83

Request: Give the reported value of inhibition for this record: Cc1ccc(O)cc1C[C@@H]1C(=O)CC[C@@]2(C)[C@H]1CC[C@]2(C)O
Result: 1

Request: Return value of inhibition for input CN1CCOc2ccc(Nc3nnc(-c4cccc(-c5cccnc5)c4)o3)cc2C1 , no commentary.
Result: 2.67

Request: Given the compound O=C(Nc1ccc(OC2CCN(Cc3ccccc3)C2)c(Cl)c1)c1ccco1 (stereo not given) , write its reported inhibition.
Result: 6.46

Request: # return recorded inhibition for input CCN1CCN(c2cc(C)c3cc(NC(=O)c4cccc(OC)c4)ccc3n2)CC1
Result: 15.3

Request: Hello, please tell me recorded inhibition for this one: CN(C)CC(O)COc1ccc(Nc2ncc([N+](=O)[O-])c(Nc3ccccc3O)n2)cc1 (stereo not given)
Result: 3.7

Request: Identify the reported inhibition for the following entry. COc1ccc(-c2ccccc2OCCCNc2nc(NCCc3ccc(O)cc3)nc(N3CCNCC3)n2)cc1
Result: 3.49

Request: Answer with the recorded inhibition of CSc1cccc(NC(=O)Nc2ccc(I)c(OCCN(C)C)c2)c1 only.
Result: 4.31

Request: Name the recorded inhibition of the item COc1ccc(S(=O)(=O)NC2CCN(c3ccnc4cc(Cl)ccc34)C2)cc1 (stereo not given) in your answer.
Result: 1.1

Request: Return value of inhibition for input Cc1cccc(Nc2nc3nonc3nc2Nc2cccc(Cl)c2Cl)c1C , no commentary.
Result: 7.64

Request: Using known records, supply inhibition for CC(Nc1nncc(-c2cccc(F)c2)n1)c1ccc(F)cc1 (stereo not given)
Result: 9.2

Request: Assign inhibition to the following record: CCOc1cc(C(=O)N[C@@H](Cc2ccccc2)[C@H](O)CNC(C)(C)c2cccc(OC)c2)cc(N2CCCS2(=O)=O)c1
Result: -0.71

Request: # return recorded inhibition for entry COc1ccc2nccc(N3CCC(CCNCc4ccc5c(n4)NC(=O)CS5)CC3)c2n1
Result: 4.8

Request: For Cc1nc(NCc2ccccc2)cc(NCC(O)c2ccc(O)cc2)n1 (stereo not given) , write its inhibition.
Result: 8.57

Request: State its inhibition: CS(=O)(=O)Nc1cccc(-c2cnc3[nH]cc(-c4ccc(C(=O)O)c(F)c4)c3c2)c1
Result: -1.06

Request: Quick one: give measured inhibition for O=C1COC2(CN1C1CCN(Cc3ccc(O)c(Cl)c3)C1)c1ccccc1-c1ccccc12 (stereo not given)
Result: 7.57

Request: # return recorded inhibition for entry COc1ccc(OC(C)CNC(=O)c2cc([N+](=O)[O-])ccc2-c2ccc(OC)cc2)cc1 (stereo not given)
Result: -1.79

Request: Note inhibition for the compound shown: CN(/N=C/C=C/c1ccc(Cl)cc1)c1nc(NCCc2ccc(O)cc2)nc(N2CCNCC2)n1
Result: 0.71

Request: Specify inhibition for Cc1cc(=NN=Cc2ccccc2Cl)c2cc(F)ccc2[nH]1 and stop.
Result: 2.95

Request: Name the recorded inhibition of the item Cc1cccc2nc(-c3ccc(-c4ccc(CNCc5ccccc5)cc4)cc3)[nH]c12 in your answer.
Result: 3.32

Request: Identify the reported inhibition for the following entry. CC1CCCC(Nc2noc(-c3sccc3Br)n2)C1 (stereo not given)
Result: 0.6

Request: Please indicate inhibition recorded for C(=Cc1ccccc1)C=NN=c1cc[nH]c2ccccc12
Result: 1.5

Request: Give inhibition for the following compound: Nc1cccc(CNCc2ccc(-c3cccc(-c4nc5ccccc5[nH]4)c3)cc2)c1
Result: 0.24

Request: Give the measured inhibition for O=C(NCC(CCCN1CCC(c2c[nH]c3ccccc23)CC1)c1ccccc1)Nc1ccc(Cl)c(Cl)c1 (stereo not given)
Result: 2.82

Request: Respond only with inhibition recorded for O=[N+]([O-])c1cc(C(c2ccc(O)c([N+](=O)[O-])c2)C(Cl)(Cl)Cl)ccc1O
Result: 9.85

Request: // fetch inhibition given entry Fc1cccc(Cl)c1-c1nc(NCCC(c2ccccc2)c2ccccc2)no1
Result: 0.05

Request: Specify inhibition for O=C(Nc1cc(C(F)(F)F)cc(C(F)(F)F)c1)NC(CCCN1CCC2(CC1)OCc1ccccc12)c1ccc(Cl)c(Cl)c1 (stereo not given) and stop.
Result: 5.93
